target: human B7-H3 expressed on A375 tumor cells (human) (UniProt Q5ZPR3); assay: flow cytometry on A375 cells, MFI(PE); unit from the axis Conc (nM)
Parameter EC50: see the listing below.

{"BINDER": "72D1D11-z3p1 (antibody, V domains shown) VH: QVQLVQSGSELKKPGASVKVSCKASGYTFTNLGLNWVRQAPGQGLEWMGWINTAGGQPTYAEDFKGRFVFSLDTSVSTAYLQISSLKAEDTAVYYCARDDGYYYTMDYWGQGTTVTVSS VL: DIVMTQSPLSLPVTPGEPASISCRSSQSLVHSNAKTYLHWYLQKPGQSPQLLIYKVSNRFSGVPDRFSGSGSGTDFTLKISRVEAEDVGVYYCSQSTHVPWTFGGGTKLEIK", "VALUE UNITS": "nM", "EC50": 0.36}
{"BINDER": "MGA017 (antibody, from a related filing, V domains shown) VH: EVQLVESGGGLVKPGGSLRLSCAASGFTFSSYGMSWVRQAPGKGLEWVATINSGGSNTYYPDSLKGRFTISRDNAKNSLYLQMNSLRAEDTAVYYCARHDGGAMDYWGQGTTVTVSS VL: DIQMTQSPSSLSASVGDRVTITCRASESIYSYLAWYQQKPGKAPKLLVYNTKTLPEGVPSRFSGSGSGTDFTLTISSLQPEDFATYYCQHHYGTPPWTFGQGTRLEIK", "VALUE UNITS": "nM", "EC50": 0.22}
{"BINDER": "106A5B3 (antibody, V domains shown) VH: EVQLVESGGDLVKPGGSLKLSCAASGFTFSSYGMSWVRQTPDKRLEWVATISSGGSYIYYPDSMKGRFTISRDNAKNTLYLQMSSLQSEDTAIYYCASDYGSRYFDYWGQGTTLTVSS VL: QIVLTQSPAIMSASPGEKVTMTCSASSSVIYMSWYKQKPGSSPRLLIYDTSNLASGVPVRFSGSGSGTSYSLTISRMEAEDAATYYCQQWSSYPRTFGGGTKLEIK", "VALUE UNITS": "nM", "EC50": 0.1}
{"BINDER": "126C10B10 (antibody, V domains shown) VH: GVQLQQSGAELVKPGASVKLSCTGSGFNIKDPYIHWVKQRPEQGLEWIGRIDPANGNTKYGPRFQGRATMTADTSSNTANLQLSSLTSEDTAVYYCTTWNYYLSRGFDYWGQGTTLTVSS VL: QIVLTQSPAIMSASPGEKVTMTCSARSSVTYMHWYQQKSGTSPKRWIYDTSKLASGVPARFSGSGSGTSYSLTISSMEAEDAATYYCQQWTSNPLTFGAGTKLELK", "VALUE UNITS": "nM", "EC50": 0.22}
{"BINDER": "81C8A1 (antibody, V domains shown) VH: QVTLKESGPGILQPSQTLSLTCSFSGFSLSTSGMGVSWIRQPPGKGLEWLAHIYWDDDRRYNPSLKSRLTISRDTSRNQVFLQITTVDTADTATYYCARSPYGSEAYWGQGTLVIVSA VL: QIVLSQSPTILSAFPGEKVTMTCRASSSVSFIQWYQQKSGSSPKPWIYSPSNLASGVPTRFSGSGSGTSYSLTIGRVEAEDAATYYCQQWSSYPWTFGGGTKVEIK", "VALUE UNITS": "nM", "EC50": 0.17}
{"BINDER": "72D1D11-z3 (antibody, V domains shown) VH: QVQLVQSGSELKKPGASVKVSCKASGYTFTNLGLNWVRQAPGQGLEWMGWINTAGGQPTYAEDFKGRFVFSLDTSVSTAYLQISSLKAEDTAVYYCARDDGYYYTMDYWGQGTTVTVSS VL: DIVMTQSPLSLPVTPGEPASISCRSSQSLVHSNGKTYLHWYLQKPGQSPQLLIYKVSNRFSGVPDRFSGSGSGTDFTLKISRVEAEDVGVYYCSQSTHVPWTFGGGTKLEIK", "VALUE UNITS": "nM", "EC50": 0.4}
{"BINDER": "227E12D1 (antibody, V domains shown) VH: EVKLVESGGGLVKPGGSLKLSCAASGFTFSSYGMSWVRQTPEKRLEWVATISGGGTYTYYPDSVKGRFTISRDNAKNNLYLQMSSLRSDDTALYYCARHEGLVMDYWGQGTSVTVSS VL: DIQMTQSPASLSASVGETVTITCRASENIYSYLAWYQQKQGKSPQLVVYNAKTLAEGVPSRFSGSGSGTQFSLKINSLQPEDFGTYYCQHHYGPPPYTFGGGTKLEIK", "VALUE UNITS": "nM", "EC50": 0.093}
{"BINDER": "294A3C4 (antibody, V domains shown) VH: QVQLQQPGAELVKPGASVKLSCKASGYTFTSYWMHWVKQRPGQGLEWIGMFHPNSGTTNYNEKFKSKATLTVDKSSSTAYMQLSSLTSEDSAVYYCARRLGIFFDYWGQGTTLTVSS VL: DIVMTQSPSSLTVTAGEKVTMSCRSSQSLLNSGNQKNYLTWYQQKPGQPPKLLIYWASTRDSGVPDRFTGSGSGTDFTLTISSVQTEDLAVYYCQTDYSYPFTFGSGTKLEIK", "VALUE UNITS": "nM", "EC50": 0.087}

Values compiled from patent US20250313632A1.
